# target-under-test: T1, human Neuropeptide S receptor, wildtype (NPSR WT) (human, UniProt Q6W5P4 1-371)
# T1 construct: Stably expressed in CHO dhfr(-), HEK 293T or HEK 293 cells; also called hNPSR; human NPSR
# T1 sequence: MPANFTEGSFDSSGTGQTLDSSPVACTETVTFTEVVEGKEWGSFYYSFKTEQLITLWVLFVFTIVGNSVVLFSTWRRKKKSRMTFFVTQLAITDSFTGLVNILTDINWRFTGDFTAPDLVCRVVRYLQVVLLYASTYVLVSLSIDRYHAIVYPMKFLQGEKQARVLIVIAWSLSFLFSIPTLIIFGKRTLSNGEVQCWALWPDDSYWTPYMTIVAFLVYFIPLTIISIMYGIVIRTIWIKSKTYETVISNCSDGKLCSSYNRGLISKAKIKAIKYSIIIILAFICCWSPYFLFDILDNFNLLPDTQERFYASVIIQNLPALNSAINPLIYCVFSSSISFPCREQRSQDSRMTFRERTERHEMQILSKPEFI
# experiment-notes: saturation binding of [125I] Y10-NPS to stable clones, intact cells, average of n=4 clones
Where no end group is shown, it is not given here. The star is where a group is joined. 125I = radioactive iodine-125 label on the tyrosine, [125I]*
test-readout: Kd (nM)
# value in nM; strip the unit string

Kd measured on SFRNGVGTGY(125I)KKTSFQRAKS (also: monoiodinated with 125I (chloramine T), Human NPS in which the residue at position 10 is replaced by tyrosine, then radioiodinated; also called Y10-NPS; the radioligand) [[125I] Y10-hNPS (monoiodinated human Y10-NPS radioligand)] = 0.347
